# systemTested: T1, human BMP9 (BMP9/Growth Differentiation Factor 2 [Homo sapiens], NP_057288) (human, UniProt Q9UK05 320-429, limits assumed)
# T1 construct: cell assays use 'recombinant human BMP9 complex'; also called huBMP9; hBMP9
# T1 sequence: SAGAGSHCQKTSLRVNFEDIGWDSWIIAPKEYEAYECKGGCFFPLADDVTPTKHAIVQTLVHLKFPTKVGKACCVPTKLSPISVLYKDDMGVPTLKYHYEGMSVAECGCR
# testDetails: blocking ELISA; competitor Type II BMP receptor (ActRIIB, BMPRII)
quantityMeasured: IC50

-- ask Supply recorded IC50 for Antibody BMP9-5: AM1900 (antibody, human IgG1, kappa, V domains shown) VH: QVQLVQSGAEVKKPGASVKVSCKASGYTFTRYWMHWVRQAPGQGLEWMGEINPSQGGTNYNEKFKSRVTMTVDKSISTAYMELSRLRSDDTAVYYCAIGANYGGLVYWGQGTLVTVSS VL: EIVLTQSPATLSLSPGERATLSCRASESLDNYGISFMNWFQQKPGQAPRFLIYAASNQGSGIPARFSGSGSGTDFTLTISSLQPEDTAVYFCQQSKEVPRTFGGGTKVEIKR here.
-- reply ≤ 1 nM
